biological target: His6-AspH315–758 (human aspartate/asparagine-β-hydroxylase, AspH) (Homo sapiens); construct: N-Terminally His6-tagged human AspH315–758 (His6-AspH315–758) was produced in E. coli BL21 (DE3) cells; made in house; host or cells: E. coli BL21 (DE3), pET-28a(+) vector; experiment: SPE-MS AspH inhibition assay (LOPAC screen at fixed 20 μM and IC50 dose-response), hydroxylation of cyclic peptide hFX-CP101–119; format: biochemical; details: 50 nM His6-AspH315–758, 1.0 μM hFX-CP101–119, 3 μM 2OG, 2 μM Fe(II), 50 mM HEPES pH 7.5, 20 °C; mean ± SD, n = 2 (2,4-PDCA n = 10); listed as C00007; read-out: IC50
pIC50: −log10 of the molar value.
READOUT NAME: pIC50

CN=c1nc(-c2ccccc2)n(-c2ccccc2)s1 [SCH-202676, reference compound] | 6.29

###

Reported values of Plate 5 (% inhibition) for individual entries
Biological target: His6-AspH315–758 (human aspartate/asparagine-β-hydroxylase, AspH) (Homo sapiens, UniProt Q12797)
Construct: N-Terminally His6-tagged human AspH315–758 (His6-AspH315–758) was produced in E. coli BL21 (DE3) cells; made in house; host or cells: E. coli BL21 (DE3), pET-28a(+) vector
Sequence (Q12797 315-758): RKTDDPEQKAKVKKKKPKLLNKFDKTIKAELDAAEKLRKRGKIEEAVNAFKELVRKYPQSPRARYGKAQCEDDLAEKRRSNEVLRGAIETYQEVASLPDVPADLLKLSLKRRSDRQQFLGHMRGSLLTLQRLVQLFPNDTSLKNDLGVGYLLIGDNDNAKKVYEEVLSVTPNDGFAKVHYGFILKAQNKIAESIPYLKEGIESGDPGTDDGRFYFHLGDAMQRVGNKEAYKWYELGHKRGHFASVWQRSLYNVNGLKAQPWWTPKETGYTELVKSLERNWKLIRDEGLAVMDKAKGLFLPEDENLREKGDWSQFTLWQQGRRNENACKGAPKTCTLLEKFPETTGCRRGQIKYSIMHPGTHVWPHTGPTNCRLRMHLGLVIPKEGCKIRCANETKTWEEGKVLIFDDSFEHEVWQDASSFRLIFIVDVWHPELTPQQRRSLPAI
Assay: SPE-MS AspH inhibition assay (LOPAC screen at fixed 20 μM and IC50 dose-response), hydroxylation of cyclic peptide hFX-CP101–119
Format: biochemical
Details: plate 5 (Pfitzer), test compounds at fixed 20 μM
Starred links: 1 amine or outer side, 2 acyl side, 3 side chain; linkers in the order of their positions; H or OH if unused. Non-standard residues stand in square brackets, D forms with d. Residues, ends and D or L forms follow the SMILES beside them. X1 = NCCCC[C@H](N)CN([C@@H](CCCCN)C(=O)[*:2])[*:1]; Tle = CC(C)(C)[C@H](N)C(=O)O
READOUT NAME: Plate 5 (% inhibition) (%)

CCOC(=O)C1=C(O)C(=O)N(Cc2ccccc2)C1 [EBPC] | 19.44
CCOC(=O)[C@H](CC(C)C)NC(=O)[C@@H](NC(=O)[C@H](Cc1c[nH]c2ccccc12)NC(=O)[C@@H]1CCCN1C(=O)[C@H](CCCCN)NC[C@@H](N)CCCCN)C(C)(C)C [PD-149163] (H-[X1]PW[Tle]L-OEt) | -16.72
O=C1NCCc2[nH]c(-c3ccncc3)cc21 [PHA 767491] | 26.12
COc1cc(Nc2c(C#N)cnc3cc(OCCCN4CCN(C)CC4)c(OC)cc23)c(Cl)cc1Cl [Bosutinib] | -77.35
CCc1cncnc1N1CCN(Cc2nc3ccc(C(F)(F)F)cc3[nH]2)CC1 [PF-4708671] | 2.08
Cc1onc(-c2ccccc2)c1-c1ccc(S(N)(=O)=O)cc1 [Valdecoxib] | 27.98
CCN(CC)CCCCNc1ncc2cc(-c3c(Cl)cccc3Cl)c(NC(=O)NC(C)(C)C)nc2n1 [PD-161570] | -29.14
COc1cc(OC)cc(-c2cc3cnc(N)nc3nc2NC(=O)NC(C)(C)C)c1 [PD-166866] | -5.94
